Test system: OVCAR-3
Test: NCI tumour cell line growth inhibition, 48 h
Activity calls are given as the source filed them. No stated cut-off is given here; in the data, active = GI50 up to about 1.1 µM and inactive = higher.
READOUT_LABEL: GI50

[
  {
    "MOLECULE": "CC1=NNC(=O)C1C1CC(c2c[nH]c3ccccc23)=NN(c2ccccc2)C1=O (stereo not given)",
    "READOUT_LABEL": "GI50",
    "READING": "> 100 µM (inactive)"
  },
  {
    "MOLECULE": "CN(C)c1ccccc1CC(c1c[nH]c2ccccc12)c1c[nH]c2ccccc12",
    "READOUT_LABEL": "GI50",
    "READING": "12.8 µM (inactive)"
  },
  {
    "MOLECULE": "CN(C)S(=O)(=O)/N=C/c1cccc(/C=N/S(=O)(=O)N(C)C)c1",
    "READOUT_LABEL": "GI50",
    "READING": "> 100 µM (inactive)"
  },
  {
    "MOLECULE": "O=C1CC2(CCC(O)(c3ccccc3)C(C(=O)c3ccccc3)C2)C(=O)c2ccccc2N1 (stereo not given)",
    "READOUT_LABEL": "GI50",
    "READING": "> 100 µM (inactive)"
  }
]

Turning now to a further molecule:
Name the recorded GI50 of C[C@H]1O[C@@H](C(C)(C)C)OC(=O)[C@@H]1C(OC(=O)c1ccccc1)c1cccc2ccccc12 (stereo not given in full) , assay system OVCAR-3.
> 100 µM (inactive)

----------
System: TK-10
Assay: NCI tumour cell line growth inhibition, 48 h
The source made the active and inactive calls. Cut-off read from the data, not from the text of the source: active = GI50 up to about 1.1 µM and inactive = higher. Non-standard residues stand in square brackets, D forms with d. Residues, ends and D or L forms follow the SMILES beside them. *: point of attachment. NMeF = CN[CH](Cc1ccccc1)C(=O)O; NMeV = CN[CH](C(=O)O)C(C)C; Boc = CC(C)(C)OC(=O)*
READOUT_LABEL: GI50

Solved entries:
[
  {
    "COMPOUND": "OCC1OC(n2cnc3c(Cl)nc(Nc4ccc(Cl)c(Cl)c4)nc32)CC1O (stereo not given)",
    "GI50": "8.36 µM (inactive)"
  },
  {
    "COMPOUND": "CC(C)C(NC(=O)OC(C)(C)C)C(=O)N(C)C(Cc1ccccc1)C(=O)N(C)C(C(=O)O)C(C)C (stereo not drawn) (Boc-Val-[NMeF]-[NMeV]-OH; configuration not given here)",
    "GI50": "> 100 µM (inactive)"
  },
  {
    "COMPOUND": "CN(/N=C(\\C(=O)O)c1ccccc1)C1=NCCCN1",
    "GI50": "> 100 µM (inactive)"
  },
  {
    "COMPOUND": "Clc1ccc(C2=NN(c3ccccc3)C3c4cc(Br)ccc4OCC23)cc1 (stereo not given)",
    "GI50": "> 100 µM (inactive)"
  },
  {
    "COMPOUND": "CC1=NN(c2ccccc2)C(=O)C1=C1SCCCS1",
    "GI50": "23.8 µM (inactive)"
  },
  {
    "COMPOUND": "COCO[C@@H]1C[C@H]2C(=O)Nc3ccccc3C(=O)N2C1",
    "GI50": "71.4 µM (inactive)"
  },
  {
    "COMPOUND": "Cc1ccc(-c2cc(N)n(-c3nc4c([nH]3)c(=O)n(C)c(=O)n4C)n2)cc1",
    "GI50": "9.84 µM (inactive)"
  },
  {
    "COMPOUND": "CCCCCCCCCCCCN(O)C(=O)c1ccccc1",
    "GI50": "46.5 µM (inactive)"
  }
]

// each listed compound needs a value for GI50
1. COc1ccc(-c2csc(Cc3nc4ccccc4c(=O)n3-c3ccc(Cl)cc3)n2)cc1
2. O=C1CCC(C(=O)O)C2=C1CCCC2 (stereo not given)

1. > 100 µM (inactive)
2. > 100 µM (inactive)
